test system: HL-60; assay: NCI tumour cell line growth inhibition, 48 h
Activity calls are given as the source filed them. No stated cut-off is given here; in the data, active = GI50 up to about 1.1 µM and inactive = higher.
Examples of compounds with documented GI50 follow.

compound | experimental.target | GI50
COC(=O)/C=C\C(C#N)(C#N)/N=C/c1ccc(Br)s1 | HL-60 | 1.85 µM (inactive)
O=C(c1ccco1)c1ccccc1C(=O)c1ccco1 | HL-60 | > 100 µM (inactive)
CCOP(=O)(OCC)C(C)(CC)N/C(N)=N/C#N (stereo unspecified) | HL-60 | > 100 µM (inactive)
O=C(O)CCSC(=O)Nc1cccc(F)c1 | HL-60 | 23.3 µM (inactive)
CCOc1ccccc1NC(=O)CCc1nnc(S)[nH]1 | HL-60 | > 100 µM (inactive)
O=C(Nc1ccccc1)N1CC(CN2CCN(c3ccccc3)CC2)OC1=O (stereo unspecified) | HL-60 | > 100 µM (inactive)
C[C@@H](C(=O)O)N1C(c2ccco2)=C(/C(C=O)=C\c2ccco2)C(=O)/C1=C\c1ccco1 | HL-60 | > 100 µM (inactive)
COc1cc2c(c(OC)c1)/C(=C/Sc1ccccc1)C(=O)N(C(C)(C)C)C2 | HL-60 | 25 µM (inactive)
NC(CO)C(=O)NCC(=O)O (stereo unspecified) | HL-60 | > 100 µM (inactive)
CCOC(=O)c1cc([N+](=O)[O-])c(Sc2ncnc3nc[nH]c23)c([N+](=O)[O-])c1 | HL-60 | 4.19 µM (inactive)
O=C(/C=C/c1ccccc1O)/C=C/c1ccccc1O | HL-60 | 2.9 µM (inactive)

====

Listing of entries alongside the reported GI50.
tested on: SF-268; assay: NCI tumour cell line growth inhibition, 48 h
Active and inactive are the calls of the source. Cut-off read from the data, not from the text of the source: active = GI50 up to about 1.1 µM and inactive = higher.

compound | GI50
Cc1ccc2nc(-c3ccc(-c4nc5ccc(C)cc5o4)c(O)c3)oc2c1 | > 100 µM (inactive)
Sc1nnc(C(c2ccccc2)c2ccccc2)[nH]1 | > 100 µM (inactive)
Cc1ccc(Nc2ncnc3sc(SCc4ccccc4)nc23)cc1 | > 100 µM (inactive)
CCOP(=O)(C/C=C/Cn1nc(Br)c(=O)[nH]c1=O)OCC | > 100 µM (inactive)
CCCC1NC(=O)C(CC(C)C)NC(=O)c2cccc(n2)C(=O)NC(CC(C)C)C(=O)NC(CCC)C(=O)NC(C(=O)OC)CCCCNC1=O (stereo not given) | 28.2 µM (inactive)
C[N+](C)(C)CC(=O)N/N=C(/Cc1nc2c3c(ccc2nc1O)C(=O)c1ccccc1C3=O)C(=O)Nc1ccc(Cl)c(Cl)c1 | 26 µM (inactive)
CC(=O)/C(=C\NC(=S)Nc1ccc(S(N)(=O)=O)cc1)C(=O)Nc1ccccc1C | 99.8 µM (inactive)
COc1ccc2ccccc2c1C1NC(=O)c2ccccc2N1 (stereo not given) | 3.08 µM (inactive)
N=C1NC(c2ccc(Cl)cc2)=CC(c2cccc(Cl)c2)S1 (stereo not given) | 41.8 µM (inactive)
CCOC(=O)c1sc2nc(SC)nc3c2c1NCN3C | 16.7 µM (inactive)

====

Entries and their GI50
test system: NCI/ADR-RES; experiment: NCI tumour cell line growth inhibition, 48 h
The source made the active and inactive calls. No stated cut-off is given here; in the data, active = GI50 up to about 1.1 µM and inactive = higher.
assay.readout: GI50

compound | assay.readout | reported
Cc1ccc2c(C(=O)c3c(C)n(CCN4CCOCC4)c4ccccc34)cccc2c1 | GI50 | 12.4 µM (inactive)
O=C1C(c2ccccc2)=C(c2ccccc2)C1(Cl)Cl | GI50 | 3.2 µM (inactive)
Cc1cn(CC2=NCC(C)(C)N2)c(=O)[nH]c1=O | GI50 | > 100 µM (inactive)
CC1CCC2C(C)C(=O)OC2C2(C)C(=O)C=CC12 (stereo unspecified) | GI50 | > 10 µM (inactive)
Cn1c(=S)c2nc(SCCN3C(=O)c4ccccc4C3=O)[nH]c2n(C)c1=O | GI50 | > 100 µM (inactive)
NC(=O)/C=C/c1c[nH]c2nccnc12 | GI50 | 2.89 µM (inactive)
CS/C1=C(\c2ccc(C)cc2)N(c2ccccc2)C(=O)C(=O)N(c2ccccc2)/C(c2ccc(C)cc2)=C(/SC)SS1 | GI50 | > 100 µM (inactive)
Nc1ccc(-c2nc3ccccc3s2)cc1 | GI50 | 22.6 µM (inactive)
CCOC(=O)Cc1cc(=O)oc2cc(O)ccc12 | GI50 | > 100 µM (inactive)
Cc1ccnc(NC(=S)Nc2ccccc2Cl)c1 | GI50 | > 100 µM (inactive)
COc1ccc(/C=C/C(=O)OC2CC34CCNC35CC(OC5(OC)C2OC)c2ccc(OC)c(O)c24)cc1O (stereo unspecified) | GI50 | 63 µM (inactive)
